- Target under test: T1, HLA-A*02:01 (human)
- T1 construct: captured on streptavidin plates; also called peptide-receptive MHC molecules
- Assay explanation: UV peptide exchange ELISA (anti-b2m); yield grade: + >10%, ++ >20%, +++ >50, ++++ >75%
# Lookup of reported peptide exchange yield keyed by entry
Experimental endpoint: peptide exchange yield

binder=KLAEALYIA experimental_endpoint="peptide exchange yield" observed="50 to 75%"
binder=ILDELVKSL experimental_endpoint="peptide exchange yield" observed="50 to 75%"
binder=VLYNESLQL experimental_endpoint="peptide exchange yield" observed="> 75%"
binder=HLDEARTLL experimental_endpoint="peptide exchange yield" observed="> 75%"
binder=YIDDVFMGL experimental_endpoint="peptide exchange yield" observed="50 to 75%"
binder=LLAKAVQNV experimental_endpoint="peptide exchange yield" observed="50 to 75%"
binder=KLLELQELVL experimental_endpoint="peptide exchange yield" observed="> 75%"
binder=RLDDKTTNV experimental_endpoint="peptide exchange yield" observed="50 to 75%"
binder=KLSVHVTAL experimental_endpoint="peptide exchange yield" observed="> 75%"
binder=SLIDFVVTC experimental_endpoint="peptide exchange yield" observed="50 to 75%"
binder=SLGPIMLTKI experimental_endpoint="peptide exchange yield" observed="20 to 50%"
binder=VIDDLIQKL experimental_endpoint="peptide exchange yield" observed="20 to 50%"
binder=VQIGDIVTV experimental_endpoint="peptide exchange yield" observed="> 75%"
binder=QLYNQIIKL experimental_endpoint="peptide exchange yield" observed="> 75%"
binder=VLDSVDVRL experimental_endpoint="peptide exchange yield" observed="> 75%"
binder=LLPDPLYSL experimental_endpoint="peptide exchange yield" observed="20 to 50%"
binder=TLWYVPLSL experimental_endpoint="peptide exchange yield" observed="> 75%"
binder=FLDDQETRL experimental_endpoint="peptide exchange yield" observed="50 to 75%"
binder=LIDKIIEYL experimental_endpoint="peptide exchange yield" observed="20 to 50%"
binder=SIIPYLLEA experimental_endpoint="peptide exchange yield" observed="> 75%"
binder=KVSGVILSV experimental_endpoint="peptide exchange yield" observed="> 75%"
binder=LLDAFSIKL experimental_endpoint="peptide exchange yield" observed="50 to 75%"
binder=YVDSEGIVRM experimental_endpoint="peptide exchange yield" observed="10 to 20%"
binder=FLDDGNQML experimental_endpoint="peptide exchange yield" observed="50 to 75%"
binder=ILGDWSIQV experimental_endpoint="peptide exchange yield" observed="> 75%"
binder=SVDEVEISV experimental_endpoint="peptide exchange yield" observed="50 to 75%"
binder=FLDSLIYGA experimental_endpoint="peptide exchange yield" observed="> 75%"
binder=ALEPIDITV experimental_endpoint="peptide exchange yield" observed="50 to 75%"
binder=KVLGDVIEV experimental_endpoint="peptide exchange yield" observed="> 75%"
binder=FAYDGKDYIAL experimental_endpoint="peptide exchange yield" observed="50 to 75%"
binder=KQQASQVLV experimental_endpoint="peptide exchange yield" observed="50 to 75%"
binder=IVDNTTMQL experimental_endpoint="peptide exchange yield" observed="50 to 75%"
